Tested on: Anopheles stephensi
testDescription: Example B7: evaluation of insecticide impregnated polymer surfaces
Format: in vivo
particulars: PP; AI content 2 wt %; polymer 4 to 6 weeks old; after one hour
outcomeMeasure: knock-down (%)
Numbers only, in %.

[
  {
    "molecule": "CO/C=C(/C(=O)OC)c1ccccc1Oc1nnc(C(F)(F)F)s1",
    "measurementTarget": "Anopheles stephensi",
    "outcomeMeasure": "knock-down",
    "value": 100
  },
  {
    "molecule": "CO/C=C(/C(=O)OC)c1ccccc1Oc1nc(C(C)(C)C)ns1",
    "measurementTarget": "Anopheles stephensi",
    "outcomeMeasure": "knock-down",
    "value": 93
  },
  {
    "molecule": "CC1(C)C(C=C(Cl)Cl)C1C(=O)OCc1cccc(Oc2ccccc2)c1 (stereo not shown) [Permethrin, reference compound]",
    "measurementTarget": "Anopheles stephensi",
    "outcomeMeasure": "knock-down",
    "value": 100
  }
]

### Prompt Need knock-down of CCC(=N\OC)/C(C)=N/OCc1ccccc1/C(=C\OC)C(=O)OC , thanks.
### Response 100

###

System: Aedes aegypti
testDescription: Example B7: evaluation of insecticide impregnated polymer surfaces
Type: in vivo
particulars: LDPE; AI content 2 wt %; polymer 4 to 6 weeks old; after one hour
outcomeMeasure: knock-down (%)
One number for each entry, in %.

[
  {
    "compound": "CO/C=C(/C(=O)OC)c1ccccc1Oc1nc(C(C)(C)C)ns1",
    "knock-down, %": 100
  }
]

Could you tell me knock-down for each of these compounds? They are listed below.
1. CO/C=C(/C(=O)OC)c1ccccc1Oc1nnc(C(F)(F)F)s1
2. CCC(=N\OC)/C(C)=N/OCc1ccccc1/C(=C\OC)C(=O)OC
3. CO/C=C(/C(=O)OC)c1ccccc1Oc1cc(C(F)(F)C(F)(F)F)ncn1
4. CC1(C)C(C=C(Cl)Cl)C1C(=O)OCc1cccc(Oc2ccccc2)c1 (centres unmarked) [Permethrin, reference compound]

### Response
1: 100; 2: 63; 3: 100; 4: 100

###

Tested on: Aedes aegypti
testDescription: Example B7: evaluation of insecticide impregnated polymer surfaces
Assay type: in vivo
particulars: PP; AI content 2 wt %; polymer 2 to 4 weeks old; after one hour
outcomeMeasure: knock-down (%)
Answers are plain numbers, in %.

Recorded results for 3 molecules are shown here.
[
  {
    "compound": "CO/C=C(/C(=O)OC)c1ccccc1CO/N=C(\\C)OC",
    "outputUnit": "%",
    "knock-down": 100
  },
  {
    "compound": "CO/C=C(/C(=O)OC)c1ccccc1Oc1ncnc(C(C)(C)C)n1",
    "outputUnit": "%",
    "knock-down": 80
  },
  {
    "compound": "CO/C=C(/C(=O)OC)c1ccccc1Oc1ncc(C(F)(F)F)s1",
    "outputUnit": "%",
    "knock-down": 100
  }
]

In the following, a different molecule is considered.
### Prompt Endpoint output: knock-down of CO/C=C(/C(=O)OC)c1ccccc1CO/N=C(\C)C(C)C . Value?
### Response 100
